src = patent US11679107B2

Molecular target: SF3b complexes (Homo sapiens, UniProt O75533+Q7RTV0)
Construct: endogenous in cells; host or cells: Nuclear extracts; A HeLa S3 extract preparation is described for the in vitro splicing assay
Assay: Scintillation proximity assay (SPA) with [3H]-labelled pladienolide probe
Type: binding
Settings: SF3B1 (WT); geometric mean; read-out: SPA-ATS GMean IC50 (nM) SF3B1 (WT)
MEASURED_QUANTITY: IC50 (nM)

MOLECULE: C/C(=C\c1cc(F)cc(N(C)C)c1)[C@H]1OC(=O)C[C@H](O)CC[C@H](C)[C@@H](OC(=O)N2CCN(C)CC2)/C=C/[C@@H]1C [Compound 29]
REPORTED_RESULT: 5.6
--
MOLECULE: C/C(=C\c1cccc(S(=O)(=O)N2CCN(C)CC2)c1)[C@H]1OC(=O)C[C@H](O)CC[C@H](C)[C@@H](OC(=O)N2CCN(C)CC2)/C=C/[C@@H]1C [Compound 211]
REPORTED_RESULT: 11.9
--
MOLECULE: C/C(=C\c1cc(F)cc(N2CCOCC2)c1)[C@H]1OC(=O)C[C@H](O)CC[C@H](C)[C@@H](OC(=O)N(C)CCC#N)/C=C/[C@@H]1C [Compound 245]
REPORTED_RESULT: 17.4
--
MOLECULE: COCCn1cnc2c(F)cc(/C=C(\C)[C@H]3OC(=O)C[C@H](O)CC[C@H](C)[C@@H](OC(=O)N4CCN(C)CC4)/C=C/[C@@H]3C)cc21 [Compound 142]
REPORTED_RESULT: 1.35
--
MOLECULE: C/C(=C\c1cccc(COC(=O)N2CCOCC2)c1)[C@H]1OC(=O)C[C@H](O)CC[C@H](C)[C@@H](OC(=O)N2CCN(C)CC2)/C=C/[C@@H]1C [Compound 257]
REPORTED_RESULT: 5.75
--
MOLECULE: C/C(=C\c1cc(F)cc(N2CCN(C(=O)Cn3cccn3)CC2)c1)[C@H]1OC(=O)C[C@H](O)CC[C@H](C)[C@@H](OC(=O)N2CCN(c3ccncc3)CC2)/C=C/[C@@H]1C [Compound 237]
REPORTED_RESULT: 8.37
--
MOLECULE: C/C(=C\c1cccc(N(C)C)c1)[C@H]1OC(=O)C[C@H](O)CC[C@H](C)[C@@H](OC(=O)N2CCN(C)CC2)/C=C/[C@@H]1C [Compound 265]
REPORTED_RESULT: 5.3
--
MOLECULE: COc1ccc(Cn2nnc3c(F)cc(/C=C(\C)[C@H]4OC(=O)C[C@H](O)CC[C@H](C)[C@@H](OC(=O)N5CCN(C)CC5)/C=C/[C@@H]4C)cc32)cc1 [Compound 166]
REPORTED_RESULT: 23.8
--
MOLECULE: C/C(=C\c1cncc(Cl)c1)[C@H]1OC(=O)C[C@H](O)CC[C@H](C)[C@@H](OC(=O)N2CCN(C)CC2)/C=C/[C@@H]1C [Compound 46]
REPORTED_RESULT: 12.2
--
MOLECULE: C/C(=C\c1cc(F)cc(NS(=O)(=O)N(C)C)c1)[C@H]1OC(=O)C[C@H](O)CC[C@H](C)[C@@H](OC(=O)N2CCN(C)CC2)/C=C/[C@@H]1C [Compound 248]
REPORTED_RESULT: 6.62
--
MOLECULE: C/C(=C\c1cc(F)cc(N2CCN(C(=O)C3CCOCC3)CC2)c1)[C@H]1OC(=O)C[C@H](O)CC[C@H](C)[C@@H](OC(=O)N2CCN(C)CC2)/C=C/[C@@H]1C [Compound 118]
REPORTED_RESULT: 3.76
--
MOLECULE: C/C(=C\c1cc(F)c2cnn(CC3CC3)c2c1)[C@H]1OC(=O)C[C@H](O)CC[C@H](C)[C@@H](OC(=O)N2CCN(C)CC2)/C=C/[C@@H]1C [Compound 87]
REPORTED_RESULT: 4.98
--
MOLECULE: C/C(=C\c1cc(F)cc(N2CCN(C(=O)Cn3cccn3)CC2)c1)[C@H]1OC(=O)C[C@H](O)CC[C@H](C)[C@@H](OC(=O)N2CCN(C3CCCCCC3)CC2)/C=C/[C@@H]1C [Compound 236]
REPORTED_RESULT: 84
--
MOLECULE: C/C(=C\c1cc(F)c2nnn([C@@H](C)CO)c2c1)[C@H]1OC(=O)C[C@H](O)CC[C@H](C)[C@@H](OC(=O)N2CCN(C)CC2)/C=C/[C@@H]1C [Compound 149]
REPORTED_RESULT: 1.86
--
MOLECULE: C/C(=C\c1cc(F)c2nnn(CC3CC3)c2c1)[C@H]1OC(=O)C[C@H](O)CC[C@H](C)[C@@H](OC(=O)N2CCN(C)CC2)/C=C/[C@@H]1C [Compound 137]
REPORTED_RESULT: 1.21
--
MOLECULE: C/C(=C\c1cc(F)c2cnn(CC#N)c2c1)[C@H]1OC(=O)C[C@H](O)CC[C@H](C)[C@@H](OC(=O)N2CCN(C)CC2)/C=C/[C@@H]1C [Compound 131]
REPORTED_RESULT: 4.04
--
MOLECULE: C/C(=C\c1cc(F)cc(N2CCOCC2)c1)[C@H]1OC(=O)C[C@H](O)CC[C@H](C)[C@@H](OC(=O)N2CCN(C)[C@H](C)C2)/C=C/[C@@H]1C [Compound 23]
REPORTED_RESULT: 4.23
--
MOLECULE: C/C(=C\c1ccc2c(F)nn(CC3CC3)c2c1)[C@H]1OC(=O)C[C@H](O)CC[C@H](C)[C@@H](OC(=O)N2CCN(C)CC2)/C=C/[C@@H]1C [Compound 133]
REPORTED_RESULT: 6.99
--
MOLECULE: COCC(=O)Nc1cc(F)cc(/C=C(\C)[C@H]2OC(=O)CC(O)CCC(C)[C@@H](OC(=O)N3CCN(C)CC3)/C=C/[C@@H]2C)c1 (stereo in doubt) [Compound 249]
REPORTED_RESULT: 5.16
--
MOLECULE: C/C(=C\c1cc(Cl)cc(N2CCOCC2)c1)[C@H]1OC(=O)C[C@H](O)CC[C@H](C)[C@@H](OC(=O)N2CCN(C)CC2)/C=C/[C@@H]1C [Compound 20]
REPORTED_RESULT: 7.76
--
MOLECULE: C/C(=C\c1cc(F)cc(N2CCN(C(=O)C3CC3)CC2)c1)[C@H]1OC(=O)C[C@H](O)CC[C@H](C)[C@@H](OC(=O)N2CCN(C)CC2)/C=C/[C@@H]1C [Compound 109]
REPORTED_RESULT: 2.85
